Measured values drawn from ChEMBL document CHEMBL3988442 for this set.

Target: Chromo domain-containing protein 1 (Saccharomyces cerevisiae (strain ATCC 204508 / S288c) (Baker's yeast))
Test: ScCHD-1 Enzyme Inhibition Assay; further: in the data most compounds retested in dose-response had high values
Type: functional
Set-up: scale not given: direction of the effect not stated beside the values
Conditions: 30 µM
readout.label: Percent Effect (%)

compound=O=C(c1ccc(Cl)cc1)N1CCCn2nnc(Cn3cccn3)c2C1 readout_label="Percent Effect" test_result=-7.62
compound=CN1CCN(Cc2ccccc2CNC(=O)c2ccc(Br)cc2)CC1 readout_label="Percent Effect" test_result=-1.46
compound="Cc1cc(-c2cnc(N3CCCC(C)C3)nc2-c2cccnc2C)on1 (centres undefined)" readout_label="Percent Effect" test_result=-22.2
compound=N#Cc1ccc(CNCC2CCN(CCO)CC2)cc1 readout_label="Percent Effect" test_result=-2.99
compound="CN1CCCC1c1ccc(C(=O)N2CCc3ccccc3C2)s1 (centres undefined)" readout_label="Percent Effect" test_result=7.75
compound=CNc1cc2c(nn1)CCN(C(=O)c1cc(F)cc(F)c1)C2 readout_label="Percent Effect" test_result=-21.1
compound=CC(=O)N1CCC2(CC1)COCCN2Cc1ccc(F)cc1 readout_label="Percent Effect" test_result=-1.77
compound=CC(C)N(CC(N)=O)Cc1csc(Cc2ccccc2)n1 readout_label="Percent Effect" test_result=-6.32
compound=Cn1nc2c(cc1=O)CN(CC(=O)Nc1ccc(Cl)cn1)CC2 readout_label="Percent Effect" test_result=-1.83
compound=CC(C)NC(=O)c1sccc1N(C)S(=O)(=O)c1ccc(Cl)cc1 readout_label="Percent Effect" test_result=-5.6
compound="CCc1nc(C2CCCN(C(=O)CCn3ccccc3=O)C2)no1 (centres undefined)" readout_label="Percent Effect" test_result=2.66
compound=O=C(Cn1cccn1)NCC1(c2ccccc2)CC1 readout_label="Percent Effect" test_result=-6.03
compound="Cc1cccc(-n2cc(C(=O)N3CCCC(n4ccnc4)C3)nn2)c1 (centres undefined)" readout_label="Percent Effect" test_result=-17.4
compound="COC(=O)C(c1cc(F)ccc1F)N(C)C(=O)c1cccnc1O (centres undefined)" readout_label="Percent Effect" test_result=-12.9
compound=CC(C)c1ncncc1C(=O)N1CCCN(Cc2cccs2)CC1 readout_label="Percent Effect" test_result=-5.18
compound="CCS(=O)(=O)CCN1CCCC1c1noc(C2CC2)n1 (centres undefined)" readout_label="Percent Effect" test_result=-7.2
compound=O=C(Nc1cccnc1)[C@H]1C[C@@H]2CCN(c3nncs3)C[C@H]2O1 readout_label="Percent Effect" test_result=-4.77
compound=Cc1cccc(C(=O)N2CCN(S(C)(=O)=O)[C@@H](C)C2)c1C readout_label="Percent Effect" test_result=0.913
compound=CNC(=O)[C@@]12CCO[C@@H]1CCN(S(=O)(=O)c1cccnc1)C2 readout_label="Percent Effect" test_result=0.201
compound="COc1cc(C)c(C(C)NC(=O)Nc2nnc(C)s2)cc1OC (centres undefined)" readout_label="Percent Effect" test_result=-3.99
compound=Cc1ccccc1S(=O)(=O)NC(=O)CSc1ccc2c(c1)OCCO2 readout_label="Percent Effect" test_result=0.792
compound=CN(C)C(=O)N1C[C@@H]2CCCO[C@@H]2[C@H](N(C)Cc2ccco2)C1 readout_label="Percent Effect" test_result=-11.2
compound=Cn1cccc1C(=O)N1CCc2ncnc(N3CCCC3)c2CC1 readout_label="Percent Effect" test_result=-2.07
compound="CCCC1CCCN(Cc2csc(-c3cnn(C)c3)n2)CC1 (centres undefined)" readout_label="Percent Effect" test_result=-4.84
compound="CCC(C)(NCC(=O)Nc1ccccc1)c1nc(C)cs1 (centres undefined)" readout_label="Percent Effect" test_result=2.11
compound="CCCC(C)CN1CCC(n2cc(CCCO)nn2)CC1 (centres undefined)" readout_label="Percent Effect" test_result=0.69
compound=CC(C)(C)NC(=O)NC(=O)CNC(C)(C)c1ccc2c(c1)OCCO2 readout_label="Percent Effect" test_result=-5.2
compound="CCn1cc2c(n1)CN(CC1CC1)CC2COCC1CC1 (centres undefined)" readout_label="Percent Effect" test_result=-4.66
compound="Cc1ccccc1CN1CCC(NCC2CNc3ccnn3C2)CC1 (centres undefined)" readout_label="Percent Effect" test_result=-5.59

----------
Target: Tyrosyl-tRNA synthetase, putative (Trypanosoma cruzi (strain CL Brener)) (UniProt Q4DSP6)
Sequence (whole entry): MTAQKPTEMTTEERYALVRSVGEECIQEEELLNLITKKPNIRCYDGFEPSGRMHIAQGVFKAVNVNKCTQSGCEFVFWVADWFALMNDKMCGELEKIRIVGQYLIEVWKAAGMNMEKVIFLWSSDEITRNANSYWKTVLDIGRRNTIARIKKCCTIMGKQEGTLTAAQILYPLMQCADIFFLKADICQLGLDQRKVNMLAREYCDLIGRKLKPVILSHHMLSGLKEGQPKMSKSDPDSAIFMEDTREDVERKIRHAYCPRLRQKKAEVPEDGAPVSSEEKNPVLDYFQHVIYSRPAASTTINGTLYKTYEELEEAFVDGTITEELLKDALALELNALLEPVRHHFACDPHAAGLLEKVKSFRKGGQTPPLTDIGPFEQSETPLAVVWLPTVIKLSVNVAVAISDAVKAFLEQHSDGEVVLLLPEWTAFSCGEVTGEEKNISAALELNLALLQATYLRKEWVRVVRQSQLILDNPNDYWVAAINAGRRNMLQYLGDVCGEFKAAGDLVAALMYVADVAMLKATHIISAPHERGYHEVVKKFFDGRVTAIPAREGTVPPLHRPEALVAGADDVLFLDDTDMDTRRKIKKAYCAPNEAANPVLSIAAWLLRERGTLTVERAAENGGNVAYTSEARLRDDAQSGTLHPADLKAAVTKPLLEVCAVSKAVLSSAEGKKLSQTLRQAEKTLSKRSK
Test: Trypanosoma cruzi tyrosyl tRNA synthetase (TcYRS) _High Tyrosine SOP; further: in the data most compounds retested in dose-response had high values
Type: functional
Parameters: scale not given: direction of the effect not stated beside the values
Conditions: 30 µM
This section presents compounds with their documented Percent Effect values.
readout.label: Percent Effect (%)

compound=CC(C)c1noc(CN(Cc2ccccc2F)C2CC2)n1 system_name="Tyrosyl-tRNA synthetase, putative (Trypanosoma cruzi (strain CL Brener)) (UniProt Q4DSP6)" readout_label="Percent Effect" test_result=7.53
compound="Cc1nc(C)n(CC2CCCCN2CC(=O)Nc2ccncc2)n1 (centres undefined)" system_name="Tyrosyl-tRNA synthetase, putative (Trypanosoma cruzi (strain CL Brener)) (UniProt Q4DSP6)" readout_label="Percent Effect" test_result=5.83
compound="Cc1noc(C)c1CN(C)CC1CCCN1c1cccnn1 (centres undefined)" system_name="Tyrosyl-tRNA synthetase, putative (Trypanosoma cruzi (strain CL Brener)) (UniProt Q4DSP6)" readout_label="Percent Effect" test_result=6.67
compound="Cn1cc(C2CCCN2CCCc2nc(-c3cccs3)no2)cn1 (centres undefined)" system_name="Tyrosyl-tRNA synthetase, putative (Trypanosoma cruzi (strain CL Brener)) (UniProt Q4DSP6)" readout_label="Percent Effect" test_result=4.43

----------
Molecular target: Ubiquitin-activating enzyme e1, putative (Leishmania donovani (strain BPK282A1))
Assay: Leishmania donovani Ubiquitin Activating Enzyme (LdE1)
Format: functional
Design: scale not given: direction of the effect not stated beside the values
Details: 30 µM
Entries with a potency or affinity are not part of this list.
A collection of molecules and their measured Percent Effect
readout.label: Percent Effect (%)

molecule=COCCO[C@@H]1CCN(C(=O)c2ccc(C)o2)[C@@H]1Cc1cnn(C)c1 system_name="Ubiquitin-activating enzyme e1, putative (Leishmania donovani (strain BPK282A1))" unit_tag=% test_result=-2.7
molecule=COc1cc(C(=O)N(Cc2ccco2)C2CC2)cc2c1OCCO2 system_name="Ubiquitin-activating enzyme e1, putative (Leishmania donovani (strain BPK282A1))" unit_tag=% test_result=-2.63
molecule=NC(=O)COc1ccc(CNCc2ccc(F)cc2F)cc1 system_name="Ubiquitin-activating enzyme e1, putative (Leishmania donovani (strain BPK282A1))" unit_tag=% test_result=6.94
molecule=O=C1C[C@H]2[C@@H](CCN2C(=O)c2ccccc2)N1CCN1CCOCC1 system_name="Ubiquitin-activating enzyme e1, putative (Leishmania donovani (strain BPK282A1))" unit_tag=% test_result=-2.74
molecule="CS(=O)(=O)N1CCC(C(=O)NC(Cc2ccsc2)c2ccccn2)CC1 (stereo not drawn)" system_name="Ubiquitin-activating enzyme e1, putative (Leishmania donovani (strain BPK282A1))" unit_tag=% test_result=6.76
molecule="O=C(NCC1CCS(=O)(=O)C1)c1sccc1-c1ccc(F)cc1 (stereo not drawn)" system_name="Ubiquitin-activating enzyme e1, putative (Leishmania donovani (strain BPK282A1))" unit_tag=% test_result=-54
molecule=O=C(NC1CC1)[C@H]1C[C@H]2OCC[C@H]2N(CC2CC2)C1 system_name="Ubiquitin-activating enzyme e1, putative (Leishmania donovani (strain BPK282A1))" unit_tag=% test_result=-2.67
molecule="N#CC1CCCN(c2nc(-c3ccccc3)nc3c2CCNCC3)C1 (stereo not drawn)" system_name="Ubiquitin-activating enzyme e1, putative (Leishmania donovani (strain BPK282A1))" unit_tag=% test_result=-5.48
